# credit: ChEMBL document CHEMBL3124812

- Test system: Escherichia coli
- EXPERIMENT DESCRIPTION: Inhibition of Escherichia coli RNAP assessed as incorporation of [5,6-3H]UTP at 200 uM preincubated for 10 mins followed by DNA template and ATP, CTP, GTP, UTP, [5,6-3H]UTP addition measured after 10 mins by scintillation counting analysis
Activity calls are given as the source filed them. No cut-off for these calls is given here.
QUANTITY: inhibition

Examples with their reported inhibition follow.
mol=O=C(Nc1ccsc1C(=O)O)c1ccc(-c2ccccc2)cc1 quantity=inhibition result=28%
mol=CCN(CC)C(=O)c1cccc(C(=O)Nc2ccc(Br)cc2C(=O)O)c1 quantity=inhibition result=inactive
mol=CCN(CC)S(=O)(=O)c1cccc(C(=O)Nc2cccc(F)c2C(=O)O)c1 quantity=inhibition result=inactive
mol=NS(=O)(=O)c1cccc(C(=O)Nc2ccccc2C(=O)O)c1 quantity=inhibition result=inactive
mol=O=C(Nc1ccccc1C(=O)O)c1cccc(S(=O)(=O)N2CCCCC2)c1 quantity=inhibition result=inactive
mol=CCN(CC)S(=O)(=O)c1cccc(C(=O)Nc2cc([N+](=O)[O-])ccc2C(=O)O)c1 quantity=inhibition result=inactive

Look up inhibition for this compound: CN(C)S(=O)(=O)c1cccc(C(=O)Nc2ccccc2C(=O)O)c1
inactive

Given CCN(CC)S(=O)(=O)c1cccc(C(=O)Nc2ccc(-c3cccc(C(N)=O)c3)cc2C(=O)O)c1 , state its recorded inhibition.
45%

Any idea what its inhibition is? The compound is CCN(CC)S(=O)(=O)c1cccc(C(=O)Nc2ccccc2C(=O)O)c1
inactive

Can you look up the measured inhibition of CCN(CC)S(=O)(=O)c1cccc(C(=O)Nc2cccc(Cl)c2C(=O)O)c1 for me?
inactive

----------
- System: Escherichia coli
- EXPERIMENT DESCRIPTION: Inhibition of Escherichia coli RNAP assessed as incorporation of [5,6-3H]UTP at 100 uM preincubated for 10 mins followed by DNA template and ATP, CTP, GTP, UTP, [5,6-3H]UTP addition measured after 10 mins by scintillation counting analysis
Activity calls are given as the source filed them. The calls are words filed in the database; no cut-off is given here.
QUANTITY: inhibition

Field: example entries. Status: answers known.
mol=CCN(CC)S(=O)(=O)c1cccc(C(=O)Nc2ccc(-c3ccccc3)cc2C(=O)O)c1 result=inactive
mol=CCN(CC)S(=O)(=O)c1cccc(C(=O)Nc2ccc(F)cc2C(=O)O)c1 result=inactive
mol=CCN(CC)S(=O)(=O)c1cccc(C(=O)Nc2cc(Cl)ccc2C(=O)O)c1 result=inactive
mol=CCN(CC)S(=O)(=O)c1cc(C(=O)Nc2ccc(F)cc2C(=O)O)ccc1Br result=inactive
mol=O=C(O)c1cccc(NC(=O)c2ccc(-c3ccccc3)cc2)c1 result=31%
mol=O=C(O)c1ccc(NC(=O)c2ccc(-c3ccccc3)cc2)cc1 result=15%

Field: next compound
Give the measured inhibition of CCN(CC)S(=O)(=O)c1cccc(C(=O)Nc2ccc([N+](=O)[O-])cc2C(=O)O)c1 .
30%

----------
- Tested on: Escherichia coli
- EXPERIMENT DESCRIPTION: Inhibition of Escherichia coli RNAP assessed as incorporation of [5,6-3H]UTP at 200 uM preincubated for 10 mins followed by DNA template and ATP, CTP, GTP, UTP, [5,6-3H]UTP addition measured after 10 mins by scintillation counting analysis
Calls of active or inactive are those of the source. The rule behind the calls is not given here.
QUANTITY: inhibition

Solved entries:
mol=CCN(CC)S(=O)(=O)c1cccc(C(=O)Nc2cccc(O)c2C(=O)O)c1 quantity=inhibition result=inactive
mol=O=C(Nc1ccccc1C(=O)O)c1cccc(S(=O)(=O)N2CCCCCC2)c1 quantity=inhibition result=inactive
mol=CCN(CC)S(=O)(=O)c1cccc(C(=O)Nc2ccc(C)cc2C(=O)O)c1 quantity=inhibition result=inactive
mol=O=C(Nc1ccccc1C(=O)O)c1cccc(S(=O)(=O)N2CCOCC2)c1 quantity=inhibition result=inactive

// next item, inhibition requested
Any idea what inhibition was measured for CCN(Cc1ccccc1)S(=O)(=O)c1cccc(C(=O)Nc2ccccc2C(=O)O)c1 ?
29%
